Target: recombinant human MNL phosphodiesterase PDE IV B (Homo sapiens, UniProt Q07343)
Sequence (Q07343 whole entry): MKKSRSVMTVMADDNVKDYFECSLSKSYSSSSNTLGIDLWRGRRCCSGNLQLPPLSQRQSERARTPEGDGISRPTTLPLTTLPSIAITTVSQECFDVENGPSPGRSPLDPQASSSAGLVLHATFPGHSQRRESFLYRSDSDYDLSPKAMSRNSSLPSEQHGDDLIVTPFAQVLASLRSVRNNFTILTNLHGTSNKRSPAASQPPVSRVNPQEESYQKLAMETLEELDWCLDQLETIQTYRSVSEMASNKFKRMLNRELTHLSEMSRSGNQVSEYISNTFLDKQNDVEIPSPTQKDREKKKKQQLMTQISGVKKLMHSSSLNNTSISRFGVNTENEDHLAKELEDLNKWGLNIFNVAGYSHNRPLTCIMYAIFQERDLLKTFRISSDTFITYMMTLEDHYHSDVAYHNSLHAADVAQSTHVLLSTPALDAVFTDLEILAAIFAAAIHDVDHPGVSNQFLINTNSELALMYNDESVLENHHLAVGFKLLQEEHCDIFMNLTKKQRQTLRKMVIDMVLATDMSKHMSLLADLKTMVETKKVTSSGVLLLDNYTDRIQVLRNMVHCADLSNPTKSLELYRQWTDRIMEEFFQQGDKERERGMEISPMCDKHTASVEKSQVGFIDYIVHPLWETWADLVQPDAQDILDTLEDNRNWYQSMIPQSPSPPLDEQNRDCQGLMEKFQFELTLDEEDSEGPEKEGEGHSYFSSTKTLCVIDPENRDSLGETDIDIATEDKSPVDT
Assay: Inhibition of recombinant human mononuclear lymphocyte (MNL) phosphodiesterase type IV B produced in insect cells with a baculovirus vector
Details: 3H-cAMP 0.8 μM, 10 minutes, 37° C., pH 8, DMSO 1%
parameter: IC50 (nM)

{"molecule": "N#CN=c1[nH]ccn1CCc1ccc(OC(F)F)c(OC2CCCC2)c1 [Compound 5]", "reported-value": 26.6}
{"molecule": "COc1ccc(C(C)Cn2cc[nH]c2=NC#N)cc1OC1CCCC1 (centres unmarked) [Compound 3]", "reported-value": 30}
{"molecule": "COc1ccc(CCn2cc[nH]c2=NC#N)cc1OC1Cc2ccccc2C1 [Compound 20]", "reported-value": 76.5}
{"molecule": "CC(Cn1cc[nH]c1=NC#N)c1ccc(OC(F)F)c(OC2CCCC2)c1 (centres unmarked) [Compound 4]", "reported-value": 15.3}
{"molecule": "COc1ccc(C(C)Cn2cc[nH]c2=NC#N)cc1OCC1CC1 (centres unmarked) [Compound 8]", "reported-value": 56.5}

Attribution: patent US6051718A
